# tgt: Muscarinic acetylcholine receptor M5 (Homo sapiens)
# test-name: human M5 muscarinic receptor positive allosteric modulators, primary screen, CHO-K1 cells, Fluo-8 calcium fluorescence (AID 624038)
# condition-label: CHO-K1 hM5, Fluo-8 calcium, ACh EC20 PAM; at 3 µM; hits give high values; 0% = ACh EC20, 100% = ACh EC100
Out of some 360,000 compounds screened, about 1,100 (0.31%) were called active. What follows is part of a selection rich in actives, with near analogues and random picks from the rest.
observable: activation (%)
All answers are understood in %, so give the number only.

Below, 2 compounds whose answers are already recorded.
CCN(CC(=O)Nc1c(F)cccc1F)C(=O)c1ccc(Sc2nncn2C)c([N+](=O)[O-])c1 :: 0.28
COC(=O)c1ccc(CN2CCC(CO)(Cc3ccc(OC)cc3)CC2)cc1 :: -13.3

From here, focus on the item given below.
Req: Which value of activation has been reported for COc1ccc(C(=O)NC2CCN(C(=O)Nc3ccc(F)cc3)CC2)cc1 in the records?
Resp: 1.29

These data points were gathered from PubChem BioAssay AID624038.
